All figures here come from ChEMBL document CHEMBL1133639.

The compounds listed here are annotated with their IC50.
- target of assay: Adrenergic receptor alpha-1 (Rattus norvegicus, UniProt P15823+P23944+P43140)
- Sequence (P15823 whole entry): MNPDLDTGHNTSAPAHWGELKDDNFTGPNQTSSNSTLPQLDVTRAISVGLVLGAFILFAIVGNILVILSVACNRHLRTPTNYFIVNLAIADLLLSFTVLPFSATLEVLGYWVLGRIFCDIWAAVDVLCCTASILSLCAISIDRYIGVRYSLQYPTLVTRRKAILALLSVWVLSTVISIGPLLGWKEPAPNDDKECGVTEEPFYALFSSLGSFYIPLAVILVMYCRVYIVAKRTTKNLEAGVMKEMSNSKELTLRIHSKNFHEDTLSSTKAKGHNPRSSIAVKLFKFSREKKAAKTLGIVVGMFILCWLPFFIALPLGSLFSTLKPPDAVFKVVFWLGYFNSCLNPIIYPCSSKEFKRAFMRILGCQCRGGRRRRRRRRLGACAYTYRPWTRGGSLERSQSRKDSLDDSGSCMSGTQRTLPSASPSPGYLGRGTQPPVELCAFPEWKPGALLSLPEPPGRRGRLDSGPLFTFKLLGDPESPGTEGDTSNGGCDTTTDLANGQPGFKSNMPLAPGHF
- Sequence (P23944 whole entry): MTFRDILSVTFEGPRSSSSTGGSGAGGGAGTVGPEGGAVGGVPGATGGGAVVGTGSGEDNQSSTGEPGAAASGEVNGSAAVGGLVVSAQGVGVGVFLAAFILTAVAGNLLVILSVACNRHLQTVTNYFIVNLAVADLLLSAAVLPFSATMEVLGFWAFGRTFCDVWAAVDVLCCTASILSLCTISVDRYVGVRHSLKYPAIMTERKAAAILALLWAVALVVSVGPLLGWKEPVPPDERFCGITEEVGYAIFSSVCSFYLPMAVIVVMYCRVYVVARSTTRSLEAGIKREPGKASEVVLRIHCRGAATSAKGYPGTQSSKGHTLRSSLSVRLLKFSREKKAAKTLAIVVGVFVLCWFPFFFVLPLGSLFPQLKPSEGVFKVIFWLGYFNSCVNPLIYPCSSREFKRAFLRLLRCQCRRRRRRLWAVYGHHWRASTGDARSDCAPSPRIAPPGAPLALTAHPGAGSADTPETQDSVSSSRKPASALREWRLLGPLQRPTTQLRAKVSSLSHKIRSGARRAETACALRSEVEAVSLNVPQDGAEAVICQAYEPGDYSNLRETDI
- Sequence (P43140 whole entry): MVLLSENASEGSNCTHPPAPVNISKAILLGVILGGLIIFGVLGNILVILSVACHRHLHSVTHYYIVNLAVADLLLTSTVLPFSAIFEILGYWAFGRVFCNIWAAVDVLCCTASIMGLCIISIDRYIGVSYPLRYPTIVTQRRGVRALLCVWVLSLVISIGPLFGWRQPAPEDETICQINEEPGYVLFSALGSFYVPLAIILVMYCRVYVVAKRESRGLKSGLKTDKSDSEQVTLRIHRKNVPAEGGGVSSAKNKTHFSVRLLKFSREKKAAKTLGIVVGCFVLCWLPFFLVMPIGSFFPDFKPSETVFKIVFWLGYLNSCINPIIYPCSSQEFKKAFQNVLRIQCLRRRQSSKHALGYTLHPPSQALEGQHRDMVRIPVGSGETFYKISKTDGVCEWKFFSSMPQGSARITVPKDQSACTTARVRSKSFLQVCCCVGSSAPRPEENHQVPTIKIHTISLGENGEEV
- measurement description: Displacement of [3H]prazosin at alpha-1 adrenergic receptor in rat brain cortices (n=1)
- Format: tissue-based
property label: IC50 (µM)

smiles=Oc1nc2cc(C#CCN3CCC(Cc4ccccc4)CC3)ccc2[nH]1 property_label=IC50 measured_number=0.5
smiles=COc1ccc(CC2CCN(CC#Cc3ccc4[nH]c(O)nc4c3)CC2)cc1 property_label=IC50 measured_number=17
smiles=Oc1nc2cc(C#CCN3CCC(Cc4ccc(Cl)cc4)CC3)ccc2[nH]1 property_label=IC50 measured_number=5.8
smiles=Oc1nc2cc(C#CCN3CCC(Cc4ccc(F)cc4)CC3)ccc2[nH]1 property_label=IC50 measured_number=1.2
smiles=Oc1nc2cc(C#CCN3CCC(O)(Cc4ccccc4)CC3)ccc2[nH]1 property_label=IC50 measured_number=55
smiles=Cc1ccc(CC2CCN(CC#Cc3ccc4[nH]c(O)nc4c3)CC2)cc1 property_label=IC50 measured_number=3.1
smiles=Oc1nc2cc(C#CCN3CCC(Cc4cccc(F)c4)CC3)ccc2[nH]1 property_label=IC50 measured_number=0.7
